Target: T1, human GLP-1 receptor (human, UniProt P43220 24-463)
T1 construct: whole, on cells; Used as crude membranes of stably transfected HEK293 cells; also called hGLP1R; hGLP-1R
Assay: SPA, [125I]-GLP-1 displacement, hGLP-1R membranes
ENDPOINT_LABEL: pKi
# reply with the number alone; pKi is -log10 of concentration in mol/L

Recorded pKi, per entry:
1. YXEGTFTSDYSILLDKKAQXAFIEYLIXGGPSSGAPPPS (Aib2; K17((2-[2-(2-Amino-ethoxy)-ethoxy]-acetyl)2-(γ-Glu)-CO-(CH2)18-CO2H); Aib20; D-Glu28; C-terminal NH2) [Example 83]    8.15
2. YXEGTXTSDYSIXLDKKAQXEFIXYLIEGGPSSGAPPPS (Aib2; αMeF(2F)6; αMeL13; K17((2-[2-(2-Amino-ethoxy)-ethoxy]-acetyl)-(γ-Glu)-(2-[2-(2-Amino-ethoxy)-ethoxy]-acetyl)-CO-(CH2)18-CO2H); Aib20; D-Glu24; C-terminal NH2) [Example 211]    8.58
3. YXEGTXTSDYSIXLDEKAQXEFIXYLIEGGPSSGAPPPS (Aib2; αMeF(2F)6; αMeL13; K17((2-[2-(2-Amino-ethoxy)-ethoxy]-acetyl)2-(γ-Glu)-CO-(CH2)18-CO2H); Aib20; Aad24; C-terminal NH2) [Example 147]    8.35
4. YXEGTXTSDASIXLDEKAQXEFIXYLIEGGPSSGAPPPS (Aib2; αMeF(2F)6; αMeL13; K17((2-[2-(2-Amino-ethoxy)-ethoxy]-acetyl)2-(γ-Glu)-CO-(CH2)18-CO2H); Aib20; D-Glu24; C-terminal NH2) [Example 192]    8.54
5. YXEGTXTSDISILLDKKAQXAFIEYLIEGGPSSGAPPPS (Aib2; αMeF6; K17((2-[2-(2-Amino-ethoxy)-ethoxy]-acetyl)2-(γ-Glu)-CO-(CH2)18-CO2H); Aib20; C-terminal NH2) [Example 127]    8.73

Read the next record carefully.
Data request: Quick one: pKi for YXEGTXTSDHSILLDKKAQXAFIEYLIEGGPSSGAPPPS (Aib2; αMeF6; K17((2-[2-(2-Amino-ethoxy)-ethoxy]-acetyl)2-(γ-Glu)-CO-(CH2)18-CO2H); Aib20; C-terminal NH2) [Example 128] ?
Data returned: 8.73
